Values from patent US20220331309A1

- Protocol text: Single dose administration test of lemborexant in healthy adults (Test Example 3)
- Type: in vivo, human
- Test parameters: human, plasma, oral, 5 mg, single dose of 5 mg lemborexant; read-out: AUC (0-inf), lower limit value of the 95% confidence interval
Measurement label: AUC(0-inf)

Look up AUC(0-inf) for this compound: Cc1ncc(OC[C@@]2(c3cccc(F)c3)C[C@H]2C(=O)Nc2ccc(F)cn2)c(C)n1
113 ng·h/mL

###

- Protocol text: Pharmacokinetics of lemborexant alone and in combination with itraconazole in healthy adults (Test Example 1-2)
- Test parameters: both, human, plasma, oral, 10 mg
Measurement label: AUC(0-inf) (ng·h/mL)
Use ng·h/mL as the unit, but write only the number.

Look up AUC(0-inf) for this compound: Cc1ncc(OC[C@@]2(c3cccc(F)c3)C[C@H]2C(=O)Nc2ccc(F)cn2)c(C)n1
433
